activation values for the compounds below.
target: Sphingosine 1-phosphate receptor 1 (Homo sapiens) (UniProt P21453); test: S1P1 agonists and agonism potentiators, primary screen, cell-based, primary and confirmation screens, CRE-bla reporter (AID 449); details: S1P1 CRE-bla cells, forskolin, beta-lactamase FRET, potentiator mode; at 9.5 µM; hits give high values; 100% = saturating reference agonist, 0% = basal; S1P1 agonist co-added at EC20, 2 nM;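 also: forskolin at 4 µM as EC80 and the EC20 agonist is SEW2871; 100% = SEW2871 at its EC100 plus forskolin at EC80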
Sequence (P21453 whole entry, looked up): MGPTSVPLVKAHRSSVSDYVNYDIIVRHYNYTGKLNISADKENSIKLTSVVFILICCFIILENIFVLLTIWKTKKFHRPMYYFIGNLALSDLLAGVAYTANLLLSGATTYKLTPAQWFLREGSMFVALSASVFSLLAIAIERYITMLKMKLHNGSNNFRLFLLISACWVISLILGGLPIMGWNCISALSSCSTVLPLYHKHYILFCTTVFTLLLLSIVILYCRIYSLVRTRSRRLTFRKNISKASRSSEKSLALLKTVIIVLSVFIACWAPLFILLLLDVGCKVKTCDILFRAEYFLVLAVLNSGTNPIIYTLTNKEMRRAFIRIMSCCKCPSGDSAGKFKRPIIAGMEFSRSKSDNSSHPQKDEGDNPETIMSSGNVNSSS
About 320 (0.57%) of roughly 56,000 compounds were called active. Many of the other results were omitted from the sample, so actives are more common in it than they were.
attribute-measured: activation (%)

- compound: "Cc1nc2ccc(S(=O)(=O)NC(C(=O)N3CCCCCC3)C(C)C)cc2s1 (configuration not stated)"
  unit-of-measurement: "%"
  assay-result: -9.8
- compound: "Cc1c(C(=O)NCC2CCCO2)sc2nc(-c3ccccc3)cn12 (configuration not stated)"
  unit-of-measurement: "%"
  assay-result: -17.8
- compound: "CCCc1nc(SCC(=O)Nc2ccccc2OC)c2c(=O)n(C)c(=O)n(C)c2n1"
  unit-of-measurement: "%"
  assay-result: -6
- compound: "O=C(c1cc(-c2ccccc2O)on1)N1CCCC1"
  unit-of-measurement: "%"
  assay-result: -19
- compound: "CC(C)OC(=O)c1sc2nc3c(cc2c1N)C(=O)CCC3"
  unit-of-measurement: "%"
  assay-result: -1.6
- compound: "Cc1cc(C)c(S(=O)(=O)NCCCN2CCOCC2)cc1Br"
  unit-of-measurement: "%"
  assay-result: 3.7
- compound: "Cc1ccccc1OCC(=O)Nc1ccc(N2CCN(C(=O)C(C)C)CC2)c(Cl)c1"
  unit-of-measurement: "%"
  assay-result: 92.5
- compound: "O=C(COc1ccc(Cl)cc1)Nc1ccccc1CO"
  unit-of-measurement: "%"
  assay-result: 0
- compound: "N#CCCN1CCN(S(=O)(=O)c2ccc(S(=O)(=O)NC3CCCCC3)cc2)CC1"
  unit-of-measurement: "%"
  assay-result: -9
- compound: "O=C(CCN1C(=O)COc2ccccc21)NCCCN1CCN(c2ccc(F)cc2)CC1"
  unit-of-measurement: "%"
  assay-result: -29.7
- compound: "CCN1CCCC1CNc1ncnc2c1[nH]c1ccc(F)cc12 (configuration not stated)"
  unit-of-measurement: "%"
  assay-result: 4.2
- compound: "O=C(c1cc(-c2ccc(O)cc2)on1)N1CCCc2ccccc21"
  unit-of-measurement: "%"
  assay-result: 15.4
- compound: "CC1CSc2nnc(CCc3ccccc3)n21 (configuration not stated)"
  unit-of-measurement: "%"
  assay-result: -14.3
- compound: "O=C(CN1CCOc2ccccc21)N1CCC(Cc2ccccc2)CC1"
  unit-of-measurement: "%"
  assay-result: 6
- compound: "C=C(C)Cn1c(N2CCCC2)nc2c1c(=O)[nH]c(=O)n2C"
  unit-of-measurement: "%"
  assay-result: -3.8
- compound: "CCN1CCN(Cc2c(O)ccc3c(=O)c(-c4ccc(OC)c(OC)c4)c(C(F)(F)F)oc23)CC1"
  unit-of-measurement: "%"
  assay-result: -27.2
- compound: "COc1cc(-c2nc(-c3ccncc3)no2)cc(OC)c1OC"
  unit-of-measurement: "%"
  assay-result: -7
- compound: "C=C(Br)CN1CCN(CC(=C)Br)CC1"
  unit-of-measurement: "%"
  assay-result: -15.8
- compound: "CC1(C)CC(=O)C2=C(C1)NCN(CCCN1CCOCC1)C2"
  unit-of-measurement: "%"
  assay-result: -12.5
- compound: "O=P(O)(CN1CCCCC1)CN1CCCCC1"
  unit-of-measurement: "%"
  assay-result: -3
- compound: "COc1ccc(-c2noc(-c3cccc(OC)c3OC)n2)cc1OC"
  unit-of-measurement: "%"
  assay-result: 84.3
- compound: "COc1ccc(CCNC(=O)CCn2c(=O)oc3ccccc32)cc1OC"
  unit-of-measurement: "%"
  assay-result: -30
- compound: "COc1ccc(OC)c2sc(NC(=O)C3COc4ccccc4O3)nc12 (configuration not stated)"
  unit-of-measurement: "%"
  assay-result: -1.3
- compound: "O=C(Nc1c(-c2ccccc2)nc2c(Br)cc(Br)cn12)c1ccco1"
  unit-of-measurement: "%"
  assay-result: 17.7
- compound: "CC(C)OCCCNc1ncnc2c1[nH]c1ccc(F)cc12"
  unit-of-measurement: "%"
  assay-result: 91.1
- compound: "O=C1CCCN1CCCNc1ncnc2c1[nH]c1ccccc12"
  unit-of-measurement: "%"
  assay-result: 6.8
- compound: "COc1ccccc1NC1=NC2(CCCC2)N=C(N)N1"
  unit-of-measurement: "%"
  assay-result: 5.5
- compound: "COc1ccc(N2C(=O)C3CCCN3C2c2cccc(OC)c2)cc1 (configuration not stated)"
  unit-of-measurement: "%"
  assay-result: 5.4
- compound: "CN1C(=O)CC(N2CCN(c3ccccn3)CC2)C1=O (configuration not stated)"
  unit-of-measurement: "%"
  assay-result: -14.2
- compound: "COC(=O)c1cc(C(=O)CSc2nc(C)cc(C)n2)ccc1O"
  unit-of-measurement: "%"
  assay-result: -13.3
- compound: "Cc1cccc(NC(=O)COc2ccccc2C)n1"
  unit-of-measurement: "%"
  assay-result: 15.3
- compound: "O=c1c(-c2ccc3c(c2)OCCO3)c(C(F)(F)F)oc2cc(O)cc(O)c12"
  unit-of-measurement: "%"
  assay-result: 84
- compound: "CN1CCN(c2cc(=O)n(-c3ccc(Cl)cc3)c(=O)[nH]2)CC1"
  unit-of-measurement: "%"
  assay-result: -1.5
- compound: "Cc1ccc(CCn2c3c(c4ccccc42)CN(C)CC3)cn1"
  unit-of-measurement: "%"
  assay-result: 6.4
- compound: "CCOC(=O)c1sc(/N=C/Nc2nc(C)c(C(=O)OCC)s2)nc1C"
  unit-of-measurement: "%"
  assay-result: 11.8
- compound: "CC(C)CCNC(=O)CCNS(=O)(=O)c1ccc(Cl)cc1"
  unit-of-measurement: "%"
  assay-result: 12.2
- compound: "COC(=O)Cc1c(C)c2ccc(OCC(=O)NCc3ccc4c(c3)OCO4)cc2oc1=O"
  unit-of-measurement: "%"
  assay-result: -1.6
- compound: "O=S(N1CCCCCC1)C12CC3CC(CC(C3)C1)C2 (configuration not stated)"
  unit-of-measurement: "%"
  assay-result: -13.3
- compound: "O=c1c2ccccc2oc2nc3n(c(=O)c12)CCCS3"
  unit-of-measurement: "%"
  assay-result: -24.6
- compound: "CCn1c(=O)cc(O)c2ccccc21"
  unit-of-measurement: "%"
  assay-result: -26.6
- compound: "O=P(c1cccs1)(c1cccs1)c1cccs1"
  unit-of-measurement: "%"
  assay-result: -23.6
- compound: "Cc1nc(C)c(C(=O)Nc2cccc(C)c2C)o1"
  unit-of-measurement: "%"
  assay-result: -15.9
- compound: "CCSC(C)CC1C/C(=N/O)c2c(C)noc2C1 (configuration not stated)"
  unit-of-measurement: "%"
  assay-result: -5.8
- compound: "Cn1cc(S(=O)(=O)N2CCC(Cc3ccccc3)CC2)c(=O)n(C)c1=O"
  unit-of-measurement: "%"
  assay-result: -8.3
- compound: "Cc1cc(C)nc(NC(=O)Nc2ccccc2C(F)(F)F)n1"
  unit-of-measurement: "%"
  assay-result: -24.3
- compound: "COC(=O)c1c(NC(=O)CCN2CCOCC2)sc2c1CCCC2"
  unit-of-measurement: "%"
  assay-result: -4.7
- compound: "O=C(c1cccc(C(=O)N2CCN(c3ccc(F)cc3)CC2)c1)N1CCN(c2ccc(F)cc2)CC1"
  unit-of-measurement: "%"
  assay-result: 46
